Hey, just so you know, these numbers are from patent US20230174596A1.

Target: T1, hVEGF-A (8-109) (human, UniProt P15692 214-315)
T1 construct: residue numbers count on mature VEGF-A; dimer
T1 sequence (looked up): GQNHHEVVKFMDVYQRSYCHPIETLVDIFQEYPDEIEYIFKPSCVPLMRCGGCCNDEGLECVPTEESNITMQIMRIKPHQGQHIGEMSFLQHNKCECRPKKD
Experiment: spot phage ELISA
Entries whose S/N is below 30 take T; entries at or above 30 take F.

• GCQLMQPFWGCKQDSDCLAGCVCHWYQSCG (designed binder) [VEGF_CKP9.L5.18] = T
• GCTTPWPPHEIMCKQDSDCLAGCVCGPNGFCG (designed binder) [VEGF_CKP12] = F
• GCNIMLPFWGCGPELNCLAGCVCQYYQSCG (designed binder) [VEGF_CKP9.54.12] = F
• GCQDPTFNWALYCKQDSDCLAGCVCQMYQSCG (designed binder) [VEGF_CKP7] = F
• GCHMMYDYCKQDSDCLAGCVCEMYDACG (designed binder) [VEGF_CKP3] = F
• GCQLMQPFWGCKQDSDCLAGCVCRWYNSCG (designed binder) [VEGF_CKP9.L5.7] = T
• GCQDPTFNWAEYCKQDSDCLAGCVCQMYQSCG (designed binder) [VEGF_CKP7.35] = T
